Assign melting point to each entry below.
Counter-ions that a name gives are not always drawn.

Give its melting point value. Item: CN(C)CCOc1ccc(CCCCc2ccc(OCCN(C)C)c(OCCN(C)C)c2)cc1OCCN(C)C
65 to 67 °C

Give its melting point value. Item: Oc1ccc(CCCCc2ccc(O)c(O)c2)cc1O [Compound B, 1,4-bis-(3,4-hydroxyphenyl) butane]
140 to 142 °C

Give its melting point value. Item: CCOc1ccc(CCCCc2ccc(OCC)c(OCC)c2)cc1OCC
113 to 115 °C

Give its melting point value. Item: Cc1nc(COc2ccc(CCCCc3ccc(OCc4csc(C)n4)c(OCc4csc(C)n4)c3)cc2OCc2csc(C)n2)cs1 (as salt: hydrochloride)
96 to 98 °C

---

# Tested on: A549 (lung carcinoma)
# protocol_summary: MTS cell viability assay, A549
# Type: cell-based
# experimental_conditions: Homo sapiens, A549, read-out: A549 IC50
pIC50: −log10 of the molar value.
quantity: pIC50

Give its pIC50 value. Item: CN1CCN(CCOc2ccc(CCCCc3ccc(OCCN4CCN(C)CC4)c(OCCN4CCN(C)CC4)c3)cc2OCCN2CCN(C)CC2)CC1 [Compound F]
< 4.00

Give its pIC50 value. Item: COc1ccc(CCCCc2ccc(OC)c(OC)c2)cc1OC [Compound A, 1,4-bis-(3,4-methoxyphenyl) butane]
< 4.00

Give its pIC50 value. Item: Cc1nc(COc2ccc(CCCCc3ccc(OCc4csc(C)n4)c(OCc4csc(C)n4)c3)cc2OCc2csc(C)n2)cs1 [Compound G]
< 4.00

Give its pIC50 value. Item: CN(C)CCOc1ccc(CCCCc2ccc(OCCN(C)C)c(OCCN(C)C)c2)cc1OCCN(C)C [Compound H]
4.40 to 4.70

---

# System: MCP-1
# protocol_summary: MCP-1 protein production in TNF-α-treated primary human keratinocytes
# Format: cell-based
# experimental_conditions: Keratinocyte, TNF-α-treated PHK, MCP-1 protein production, ELISA, read-out: MCP-1 IC50
quantity: pIC50
Conceptually, pIC50 converts a concentration in mol/L into minus its log10.

Give its pIC50 value. Item: c1cc(OCCCN2CCCCC2)c(OCCCN2CCCCC2)cc1CCCCc1ccc(OCCCN2CCCCC2)c(OCCCN2CCCCC2)c1
5.52

---

# protocol_summary: Caco-2 monolayer permeability study
# experimental_conditions: human, Caco-2, pH 7.4, Papp mean A to B, Caco-2, 5 μM, 90 minutes, pH 7.4
quantity: Papp A→B at 90 min, 5 μM

Give its Papp A→B at 90 min, 5 μM value. Item: C[C@H]1O[C@@H](O[C@H]2[C@@H](O)C[C@H](O[C@H]3[C@@H](O)C[C@H](O[C@H]4CC[C@@]5(C)[C@H](CC[C@@H]6[C@@H]5C[C@@H](O)[C@]5(C)[C@@H](C7=CC(=O)OC7)CC[C@]65O)C4)O[C@@H]3C)O[C@@H]2C)C[C@H](O)[C@@H]1O [digoxin, reference compound]
2.28 ×10⁻⁶ cm/s

---

# protocol_summary: in vitro
# experimental_conditions: human, Caco-2, pH 7.4, Papp A to B
quantity: Papp A→B at 90 min, 1 μM

Give its Papp A→B at 90 min, 1 μM value. Item: c1cc(OCCCN2CCCCC2)c(OCCCN2CCCCC2)cc1CCCCc1ccc(OCCCN2CCCCC2)c(OCCCN2CCCCC2)c1
13.8 ×10⁻⁶ cm/s

---

# protocol_summary: Caco-2 monolayer permeability study
# experimental_conditions: human, Caco-2, pH 7.4, Polarization Ratio [B-A/A-B], Caco-2, nominal conc. 20 μM
quantity: efflux ratio at 90 min, 20 μM

Give its efflux ratio at 90 min, 20 μM value. Item: CN(C)CCOc1ccc(CCCCc2ccc(OCCN(C)C)c(OCCN(C)C)c2)cc1OCCN(C)C [Compound H]
0.1 to 0.2

---

Assign Papp A→B at 90 min, 50 μM to each entry below.
# protocol_summary: in vitro
# experimental_conditions: human, Caco-2, pH 7.4, Papp mean A to B
Only the number, expressed in ×10⁻⁶ cm/s, is required.

Give its Papp A→B at 90 min, 50 μM value. Item: CC(C)NCC(O)COc1cccc2ccccc12 (centres unmarked) [propranolol, reference compound]
14.2

Give its Papp A→B at 90 min, 50 μM value. Item: OC[C@@H](O)[C@@H](O)[C@H](O)[C@H](O)CO [mannitol, reference compound]
0.514

---

# protocol_summary: Caco-2 monolayer permeability study
# experimental_conditions: human, Caco-2, pH 7.4, BCS permeability class, from A-B Papp in Caco-2 versus mannitol and propranolol
quantity: Papp A→B at 90 min

Give its Papp A→B at 90 min value. Item: CN(C)CCOc1ccc(CCCCc2ccc(OCCN(C)C)c(OCCN(C)C)c2)cc1OCCN(C)C
> 14.2 ×10⁻⁶ cm/s

---

# protocol_summary: Caco-2 monolayer permeability study
# experimental_conditions: human, Caco-2, pH 7.4
quantity: Papp B→A at 90 min, 20 μM (×10⁻⁶ cm/s)
Only the number, expressed in ×10⁻⁶ cm/s, is required.

Give its Papp B→A at 90 min, 20 μM value. Item: CN(C)CCOc1ccc(CCCCc2ccc(OCCN(C)C)c(OCCN(C)C)c2)cc1OCCN(C)C [Compound H]
10.1

---

# Test system: VEGF
# protocol_summary: ELISA VEGF assay (DFO-induced hypoxia)
# Type: cell-based
# experimental_conditions: Homo sapiens, read-out: VEGF IC50
pIC50: −log10 of the molar value.
quantity: pIC50

Give its pIC50 value. Item: CN(C)CCOc1ccc(CCCCc2ccc(OCCN(C)C)c(OCCN(C)C)c2)cc1OCCN(C)C
< 4.22

The measurements presented in this section are drawn from patent US20170044121A1.
